Every entry's value here was drawn from ChEMBL document CHEMBL4270577.

Attribute: inhibition of growth at 10 µM
# Tested on: SNB-19
# experiment-summary: Growth inhibition of human SNB19 cells at 10 uM incubated for 48 hrs by sulforhodamine B assay relative to control
# Type: functional
# test-conditions: SNB-19, 48 h, read-out: GI
parameter: inhibition of growth at 10 µM (%)

1. C/C(=N\O)c1ccc(NC(=O)Cn2nc(-c3ccc(Cl)cc3)nc2N)cc1 | 10.7
2. Clc1ccc(-c2cn3nc(-c4ccccc4)nc3s2)cc1 | 57
3. COc1ccc(-c2nc3sc(-c4ccc(Cl)cc4)cn3n2)cc1 | -1.95
4. COc1ccc(-c2nc3sc(-c4ccccc4)cn3n2)cc1 | 34
